System: UO-31 renal
Experiment: NCI tumour cell line growth inhibition, 48 h
Endpoint name: TGI

Compound: Cc1cc(C)nc(NS(=O)(=O)c2ccc(Nc3c4ccc(Cl)cc4nc4c(C(=O)Nc5ccc(S(=O)(=O)N=C(N)N)cc5)cccc34)cc2)n1
TGI: > 100 µM

Compound: COC(=O)C12CC3CC(C1)CC(C(=O)OC)(C3)C2
TGI: > 100 µM

Compound: CC(=O)OC1COC(n2c(-c3ccc(Cl)cc3)cc(-c3ccccc3)c(C#N)c2=S)C(OC(C)=O)C1OC(C)=O (stereo not given)
TGI: 38.4 µM

Compound: N#Cc1c(Cl)/c(=C/O)c(=O)n2c1nc1ccccc12
TGI: > 100 µM

Next:
Report value only: TGI, UO-31 renal, C=C[C@H]1CCC/C=C/[C@@H]2C[C@H](O)C[C@H]2[C@H](O)/C=C/C(=O)O1
> 100 µM

====

Test system: HL-60(TB) leukemia
Assay: NCI tumour cell line growth inhibition, 48 h
Endpoint name: TGI

Compound: CCSC1=N/C(=C\c2ccco2)C(Cl)=N1
TGI: > 100 µM
--
Compound: COc1cc(C(c2cc3c(cc2O)OCO3)N2CCCCC2)cc(OC)c1OC (stereo not drawn)
TGI: 4.16 µM
--
Compound: CCOc1ccc(Nc2nc(-c3ccc4c(c3)NC(=O)CO4)cs2)cc1
TGI: 8.17 µM
--
Compound: O=c1[nH]c(=S)[nH]n1C(=S)n1[nH]c(=S)[nH]c1=O
TGI: > 100 µM
--
Compound: CCOC(=O)/C(C#N)=C1\c2c([nH]c(=S)[nH]c2=O)Oc2ccc3ccccc3c21
TGI: 4.56 µM
--
Compound: C(=NCc1ccccc1)c1ccccc1-c1ccccc1C=NCc1ccccc1
TGI: 5.73 µM
--
Compound: O=c1c2cccnc2cc(-c2ccccc2)n1CCO
TGI: > 100 µM
--
Compound: c1cc(OCCN2CCCCC2)ccc1CNc1ccc2nc(CCC3CCCCC3)[nH]c2c1
TGI: 3.78 µM

Using the record for COc1ccc(C2=C(N)c3c(OC)cccc3C2=O)cc1 , state its measured TGI.
> 100 µM

Quickly give me recorded TGI for O=C(O)c1ccc(Nc2nc3ccccc3nc2-c2cccs2)cc1
> 100 µM

Return reported TGI. Input compound: COC1OC(C)C(O)CC1OS(=O)(=O)c1ccc(C)cc1 (stereo not drawn)
> 100 µM

====

Form field: TGI (one value per entry).
System: 786-0 renal
Assay: NCI tumour cell line growth inhibition, 48 h

Smiles input: N#Cc1c(Cl)c2ccccc2n2c1nc1ccccc12
TGI: 51 µM

Smiles input: CCOP(=O)(OCC)c1ccc(=O)[nH]c1-c1cccs1
TGI: > 100 µM

Smiles input: CCOC(=O)NC(=O)c1cn(CCCOC(=O)CCCCCCCCCCC(=O)OCCCn2cc(C(=O)NC(=O)OCC)c(=O)n(C)c2=O)c(=O)n(C)c1=O
TGI: > 100 µM

Give TGI for the following compound: OC(C/C(=N\N1CCCCC1)c1cccs1)(C(F)(F)F)C(F)(F)F
> 10 µM

Consider the compound O=C(CCc1ccc(O)cc1)NCCc1cccc(OCc2ccccc2)c1 and give its recorded TGI.
> 100 µM

====

System: UO-31 renal
Assay: NCI tumour cell line growth inhibition, 48 h
Where a SMILES comes first, the peptide text is derived from it. [ ]: non-standard residue; d: D form. The star is where a group is joined. ξ: configuration not given here. NMeN = CN[C@@H](CC(N)=O)C(=O)O; NMeV = CN[C@H](C(=O)O)C(C)C; ξNMeV = CNC(C(=O)O)C(C)C; Boc = CC(C)(C)OC(=O)*; ξNMeA = CNC(C)C(=O)O
Endpoint name: GI50

Please report GI50 with UO-31 renal for item O=C(CC12CC3CC(CC(C3)C1)C2)NCCOCCOCCOCCNC(=O)c1cc2c(o1)C(=O)c1ccccc1C2=O .
1.51 µM

Provide GI50, tested on UO-31 renal, for CCCN1CCN(c2ccc3nc(-c4ccc5nc(-c6cc(OC)ccc6OC)[nH]c5c4)[nH]c3c2)CC1 .
14.6 µM

State GI50 on UO-31 renal. Entry: O=S(=O)(c1ccc(N=C2NN=C(c3c[nH]c4ccccc34)CS2)cc1)N1CCOCC1
19.1 µM

Give UO-31 renal GI50 for the following molecule: O=C([O][Hg][CH2]C1COCC([CH2][Hg][O]C(=O)c2ccccc2)O1)c1ccccc1 (stereo not given)
1.82 µM

Report its GI50 with UO-31 renal as the test system: COC(=O)C(C)N(C)C(=O)[C@H](CC(N)=O)N(C)C(=O)[C@@H]1CCCN1C(=O)[C@H](C(C)C)N(C)C(=O)C(C(C)C)N(C)C(=O)[C@@H](NC(=O)OC(C)(C)C)C(C)C (stereo not given in full) (Boc-V[ξNMeV][NMeV]P[NMeN][ξNMeA]-OMe)
> 100 µM
